B1: unnamed (parent)
chain 1: MFGLGHNSKEISMSHIGTKFILAEKFTFDPLSNTLIDKEDSEEIIRLGSNESRILWLLAQRPNEVISRNDLHDFVWREQGFEVDDSSLTQAISTLRKMLKDSTKSPQYVKTVPKRGYQLIARVETVEEEMARESEAAHDISQPESVNEYAESSSVPSSATVVNTPQPANVVTNKSAPNLGNRLLILIAVLLPLAVLLLTNPSQTSFKPLTVVDGVAVNMPNNHPDLSNWLPSIELCVKKYNEKHTGGLKPIEVIATGGQNNQLTLNYIHSPEVSGENITLRIVANPNDAIKVCE
chain 2: MGYVRVIYQFPDNLWWNECTNQVYYAQDPMKPERLIGTPSIIQTKLLKILCEYHPAPCPNDQIIKALWPHGFISSESLTQAIKRTRDFLNDEHKTLIENVKLQGYRINIIQVIVSENVVDEADCSQKKSVKERIKIEWGKINVVPYLVFSALYVALLPVIWWSYGQWYQHELAGITHDLRDLARLPGITIQKLSEQKLTFAIDQHQCSVNYEQKTLECTKN

Variants of: B1
testParameters: with partner chain of the complex shown; parent: 100; read off a plot
Measured percent of parent (% capture relative to wild-type ToxR) values are reported for all entries that follow.
The answer should be a number; do not append a unit.

Give its percent of parent (% capture relative to wild-type ToxR) value. Item: chain 1 I120A
90

chain 1 Q107A ?
92

chain 1 S102A T103A Q107A V112A ?
63

chain 1 S102A ?
84

chain 1 K114A ?
110

Cited source for all entries: paper PMC6733452
